Numbers sourced from patent US20240141046A1.

Biological target: T1, recombinant human CTLA4-Fc (Sino Biological, 11159-H03H) (human, UniProt P16410 36-162)
T1 construct: bought; also called human CTLA4 fused with human FC fragment
T1 sequence (looked up): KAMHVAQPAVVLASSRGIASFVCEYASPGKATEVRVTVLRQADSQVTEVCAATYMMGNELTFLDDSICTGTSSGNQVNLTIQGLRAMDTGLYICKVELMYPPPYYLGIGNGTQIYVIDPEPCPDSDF
Assay: ELISA, CTLA4-Fc coated, batch 2
Outcome measure: LogEC50
Please reply with the value in numeric form only.

Guide cases for LogEC50, answers given:
Binder	LogEC50
TY22565 (antibody, IgG1, V domains shown) VH: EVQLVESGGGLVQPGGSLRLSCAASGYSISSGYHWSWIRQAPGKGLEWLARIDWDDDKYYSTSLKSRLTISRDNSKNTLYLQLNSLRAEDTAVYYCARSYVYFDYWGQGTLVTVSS VL: EVGSYPQPSSDCVPYYYACAYSGRSAGGGGSPLGLAGSGGSDIQLTQSPSSLSASVGDRVTITCRASQSVRGRFLAWYQQKPGKAPKLLIYDASNRATGIPSRFSGSGSGTDFTLTISSLQPEDFATYYCQQSSSWPPTFGQGTKVEIKR	-6.68
TY22563 (antibody, IgG1, V domains shown) VH: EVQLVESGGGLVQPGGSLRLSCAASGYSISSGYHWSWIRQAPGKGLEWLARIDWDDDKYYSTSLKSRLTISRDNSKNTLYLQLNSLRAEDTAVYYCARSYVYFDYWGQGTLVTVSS VL: EVGSYYSAYPACDSHYPYCQSSGRSAGGGGSPLGLAGSGGSDIQLTQSPSSLSASVGDRVTITCRASQSVRGRFLAWYQQKPGKAPKLLIYDASNRATGIPSRFSGSGSGTDFTLTISSLQPEDFATYYCQQSSSWPPTFGQGTKVEIKR	-7.32

Query: Looking for the measured LogEC50 of TY22402 (antibody, IgG1, V domains shown, also called B13180 (peptide name)) VH: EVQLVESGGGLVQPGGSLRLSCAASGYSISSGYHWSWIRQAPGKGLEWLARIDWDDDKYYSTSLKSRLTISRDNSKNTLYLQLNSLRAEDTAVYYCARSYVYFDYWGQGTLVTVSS VL: EVGSYIVHHSDCDAFYPYCDSSGRSAGGGGSPLGLAGSGGSDIQLTQSPSSLSASVGDRVTITCRASQSVRGRFLAWYQQKPGKAPKLLIYDASNRATGIPSRFSGSGSGTDFTLTISSLQPEDFATYYCQQSSSWPPTFGQGTKVEIKR , can you help?
Response: -6.9
